Reference for the values: patent US4605614A

compounds and their reported Selectivity UK, absorbance (O.D.) at 405 nm
- EXPERIMENTAL TARGET: Urokinase (UK) (Homo sapiens)
- Assay type: biochemical
- EXPERIMENTAL CONTEXT: TABLE 3, PNA substrates; So = 0.54 mmole/l; pH 8.2; 37° C., 10 minutes; 1000 IU/ml
Where a SMILES comes first, the peptide text is derived from it. [ ]: non-standard residue; d: D form. The star is where a group is joined. pNA = O=[N+]([O-])c1ccc(N*)cc1; Tos = Cc1ccc(S(=O)(=O)*)cc1
Answer format reminder: number followed by unit.

Look over these answered cases.
- COMPOUND: "Cc1ccc(CCOC(=O)CC[C@@H](N)C(=O)N[C@@H](Cc2ccccc2)C(=O)N[C@@H](CCCCN)C(=O)Nc2ccc([N+](=O)[O-])cc2)cc1"
  EXPERIMENTAL TARGET: "Urokinase (UK) (Homo sapiens)"
  ENDPOINT VALUE: "0.002 O.D."
- COMPOUND: "CC(C)C[C@H](NC(=O)[C@H](N)C(C)C)C(=O)N[C@@H](CCCCN)C(=O)Nc1ccc([N+](=O)[O-])cc1 [S-2251, H-D-Val-Leu-Lys-PNA, reference compound] (HELM PEPTIDE1{[dV].L.K.[O=[N+]([O-])c1ccc(N[*:1])cc1]}$$$$V2.0)"
  EXPERIMENTAL TARGET: "Urokinase (UK) (Homo sapiens)"
  ENDPOINT VALUE: "0.001 O.D."

Let me check: Cc1ccc(S(=O)(=O)NCCCC[C@@H](N)C(=O)N[C@@H](CC(C)C)C(=O)N[C@@H](CCCCN)C(=O)Nc2ccc([N+](=O)[O-])cc2)cc1 [NPN-1, HD-Lys(Tos)LeuLysPNA.2HBr] (H-[dK](Tos)-Leu-Lys-pNA) , system Urokinase (UK) (Homo sapiens), measured Selectivity UK, absorbance (O.D.) at 405 nm is 0.001 O.D.

Let me check: NCCCC[C@H](NC(=O)[C@H](Cc1ccccc1)NC(=O)[C@H](N)CCC(=O)NCCc1ccccc1)C(=O)Nc1ccc([N+](=O)[O-])cc1 [NPN-4] (HELM PEPTIDE1{[dE].F.K.[O=[N+]([O-])c1ccc(N[*:1])cc1]}|CHEM1{[c1ccc(CCN[*:1])cc1]}$PEPTIDE1,CHEM1,1:R3-1:R1$$$V2.0) , system Urokinase (UK) (Homo sapiens), measured Selectivity UK, absorbance (O.D.) at 405 nm is 0.002 O.D.

Let me check: `Cc1ccc(C(=O)NCCCC[C@@H](N)C(=O)N[C@@H](Cc2ccccc2)C(=O)N[C@@H](CCCCN)C(=O)Nc2ccc([N+](=O)[O-])cc2)cc1` , system Urokinase (UK) (Homo sapiens), measured Selectivity UK, absorbance (O.D.) at 405 nm is 0.001 O.D.

Let me check: `Cc1ccc(CCNC(=O)CC[C@@H](N)C(=O)N[C@@H](Cc2ccccc2)C(=O)N[C@@H](CCCCN)C(=O)Nc2ccc([N+](=O)[O-])cc2)cc1` , system Urokinase (UK) (Homo sapiens), measured Selectivity UK, absorbance (O.D.) at 405 nm is 0.002 O.D.

---

molecules and their reported Selectivity KL, absorbance (O.D.) at 645 nm
- EXPERIMENTAL TARGET: Kallikrein (KL) (Sus scrofa)
- Sequence (P00752 8-246): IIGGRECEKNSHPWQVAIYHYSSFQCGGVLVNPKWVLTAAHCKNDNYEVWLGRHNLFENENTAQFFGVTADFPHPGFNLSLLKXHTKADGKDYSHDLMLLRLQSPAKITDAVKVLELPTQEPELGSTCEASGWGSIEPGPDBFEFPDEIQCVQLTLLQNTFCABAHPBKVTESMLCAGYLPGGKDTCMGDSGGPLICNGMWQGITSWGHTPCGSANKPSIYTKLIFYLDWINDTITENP
- Format: biochemical, Pig
- EXPERIMENTAL CONTEXT: TABLE 4, CHA substrates; So = 0.54; pH 7.9; 37° C., 10 minutes; 1.0 BAEE-U/ml
Express your answer in O.D., writing the number without its unit.

Look over these answered cases.
- MOLECULE: "Cc1ccc(C(=O)NCCCC[C@@H](N)C(=O)N[C@@H](Cc2ccccc2)C(=O)N[C@@H](CCCCN)C(=O)Nc2ccc(O)c(C(=O)O)c2)cc1 [NPC-6, HD-Lys(Toc)PheLysCHA.2HCl]"
  ENDPOINT VALUE: 0.007
- MOLECULE: "NCCCC[C@H](NC(=O)[C@H](Cc1ccccc1)NC(=O)[C@H](N)CCCCNC(=O)c1ccc2ccccc2c1)C(=O)Nc1ccc(O)c(C(=O)O)c1 [NPC-9, HD-Lys(NaC)PheLysCHA.2HCl]"
  ENDPOINT VALUE: 0.027
- MOLECULE: "CC(C)[C@@H](N)C(=O)N[C@@H](Cc1ccccc1)C(=O)N[C@@H](CCCCN)C(=O)Nc1ccc(O)c(C(=O)O)c1 [NPC-2, HD-ValPheLysCHA.2HCl]"
  ENDPOINT VALUE: 0.006

According to the records, this molecule `NCCCC[C@H](NC(=O)[C@H](Cc1ccccc1)NC(=O)[C@H](N)CCCCNC(=O)OCc1ccccc1)C(=O)Nc1ccc(O)c(C(=O)O)c1` displays Selectivity KL, absorbance (O.D.) at 645 nm of 0.019

According to the records, this molecule `Cc1ccc(S(=O)(=O)NCCC[C@@H](N)C(=O)N[C@@H](Cc2ccccc2)C(=O)N[C@@H](CCCCN)C(=O)Nc2ccc(O)c(C(=O)O)c2)cc1` displays Selectivity KL, absorbance (O.D.) at 645 nm of 0.019

---

- EXPERIMENTAL TARGET: Thrombin (TH) (Bos taurus, UniProt P00735)
- Sequence (P00735 44-625): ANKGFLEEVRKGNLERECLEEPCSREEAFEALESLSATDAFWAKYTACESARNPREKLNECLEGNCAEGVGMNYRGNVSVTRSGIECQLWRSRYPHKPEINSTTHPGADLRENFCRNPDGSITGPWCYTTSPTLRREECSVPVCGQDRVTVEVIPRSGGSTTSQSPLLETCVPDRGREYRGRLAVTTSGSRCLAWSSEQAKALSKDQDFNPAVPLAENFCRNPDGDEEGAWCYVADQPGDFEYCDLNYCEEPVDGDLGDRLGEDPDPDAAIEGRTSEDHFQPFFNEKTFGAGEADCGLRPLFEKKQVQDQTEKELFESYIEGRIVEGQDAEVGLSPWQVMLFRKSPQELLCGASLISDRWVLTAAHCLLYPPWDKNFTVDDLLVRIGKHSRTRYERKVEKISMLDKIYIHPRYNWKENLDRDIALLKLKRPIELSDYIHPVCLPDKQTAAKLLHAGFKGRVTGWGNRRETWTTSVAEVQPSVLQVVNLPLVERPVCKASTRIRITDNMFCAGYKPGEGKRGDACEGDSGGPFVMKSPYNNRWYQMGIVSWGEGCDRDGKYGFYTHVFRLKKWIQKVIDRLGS
- Format: biochemical, Cow
- EXPERIMENTAL CONTEXT: TABLE 3, PNA substrates; So = 0.54 mmole/l; pH 8.4; 37° C., 10 minutes; 1.0 NIH/ml
Where a SMILES comes first, the peptide text is derived from it.
EXPERIMENTAL ENDPOINT: Selectivity TH, absorbance (O.D.) at 405 nm
Express your answer in O.D., writing the number without its unit.

- COMPOUND: "NCCCC[C@H](NC(=O)[C@H](Cc1ccccc1)NC(=O)[C@H](N)CCCCNS(=O)(=O)c1ccc2ccccc2c1)C(=O)Nc1ccc([N+](=O)[O-])cc1"
  EXPERIMENTAL TARGET: "Thrombin (TH) (Bos taurus, UniProt P00735)"
  ENDPOINT VALUE: 0

According to the records, this compound Cc1ccc(S(=O)(=O)NCC(=O)N2CCC[C@H]2C(=O)N[C@@H](CCCCN)C(=O)Nc2ccc([N+](=O)[O-])cc2)cc1 [CHR-PL, Tos-Gly-Pro-Lys-PNA, reference compound] (HELM PEPTIDE1{[Cc1ccc(S(=O)(=O)[*:2])cc1].G.P.K.[O=[N+]([O-])c1ccc(N[*:1])cc1]}$$$$V2.0) displays Selectivity TH, absorbance (O.D.) at 405 nm of 0.057

---

- EXPERIMENTAL TARGET: Urokinase (UK) (Homo sapiens, UniProt P00749)
- Assay type: biochemical
- EXPERIMENTAL CONTEXT: TABLE 3, PNA substrates; So = 0.54 mmole/l; pH 8.2; 37° C., 10 minutes; 1000 IU/ml
Where a SMILES comes first, the peptide text is derived from it.
compounds and their reported Selectivity UK, absorbance (O.D.) at 405 nm

- COMPOUND: "NCCCC[C@H](NC(=O)[C@H](Cc1ccccc1)NC(=O)[C@H](N)CCC(=O)NCCCc1ccccc1)C(=O)Nc1ccc([N+](=O)[O-])cc1 [NPN-5]"
  ENDPOINT VALUE: "0.001 O.D."

Continue with the next compound.
According to the records, this compound Cc1ccc(S(=O)(=O)NCC(=O)N2CCC[C@H]2C(=O)N[C@@H](CCCCN)C(=O)Nc2ccc([N+](=O)[O-])cc2)cc1 [CHR-PL, Tos-Gly-Pro-Lys-PNA, reference compound] (HELM PEPTIDE1{[Cc1ccc(S(=O)(=O)[*:2])cc1].G.P.K.[O=[N+]([O-])c1ccc(N[*:1])cc1]}$$$$V2.0) displays Selectivity UK, absorbance (O.D.) at 405 nm of 0.069 O.D.

---

- EXPERIMENTAL TARGET: Urokinase (UK) (Homo sapiens, UniProt P00749)
- Assay type: biochemical
- EXPERIMENTAL CONTEXT: TABLE 4, CHA substrates; So = 0.54; pH 8.2; 37° C., 10 minutes; 1000 IU/ml
EXPERIMENTAL ENDPOINT: Selectivity UK, absorbance (O.D.) at 645 nm
Express your answer in O.D., writing the number without its unit.

Look over these answered cases.
- MOLECULE: "NCCCC[C@H](NC(=O)[C@H](Cc1ccccc1)NC(=O)[C@H](N)CCCCNS(=O)(=O)c1ccccc1)C(=O)Nc1ccc(O)c(C(=O)O)c1"
  EXPERIMENTAL TARGET: "Urokinase (UK) (Homo sapiens, UniProt P00749)"
  ENDPOINT VALUE: 0
- MOLECULE: "Cc1ccc(S(=O)(=O)NCCCC[C@@H](N)C(=O)N[C@@H](Cc2ccccc2)C(=O)N[C@@H](CCCCN)C(=O)Nc2ccc(O)c(C(=O)O)c2)cc1 [NPC-7, 2HCl.H-D-Lys(ToS)-L-Phe-L-Lys-CHA]"
  EXPERIMENTAL TARGET: "Urokinase (UK) (Homo sapiens, UniProt P00749)"
  ENDPOINT VALUE: 0
- MOLECULE: "CC(=O)NCCCC[C@@H](N)C(=O)N[C@@H](Cc1ccccc1)C(=O)N[C@@H](CCCCN)C(=O)Nc1ccc(O)c(C(=O)O)c1 [NPC-4, HD-Lys(AC)PheLysCHA.2HCl]"
  EXPERIMENTAL TARGET: "Urokinase (UK) (Homo sapiens, UniProt P00749)"
  ENDPOINT VALUE: 0
- MOLECULE: "Cc1ccc(S(=O)(=O)NCCC[C@@H](N)C(=O)N[C@@H](Cc2ccccc2)C(=O)N[C@@H](CCCCN)C(=O)Nc2ccc(O)c(C(=O)O)c2)cc1"
  EXPERIMENTAL TARGET: "Urokinase (UK) (Homo sapiens, UniProt P00749)"
  ENDPOINT VALUE: 0.001
- MOLECULE: "NCCCC[C@@H](N)C(=O)N[C@@H](Cc1ccccc1)C(=O)N[C@@H](CCCCN)C(=O)Nc1ccc(O)c(C(=O)O)c1"
  EXPERIMENTAL TARGET: "Urokinase (UK) (Homo sapiens, UniProt P00749)"
  ENDPOINT VALUE: 0

Continue with the next molecule.
According to the records, this molecule `NCCCC[C@H](NC(=O)[C@H](Cc1ccccc1)NC(=O)[C@H](N)CCCCNC(=O)OCc1ccccc1)C(=O)Nc1ccc(O)c(C(=O)O)c1` displays Selectivity UK, absorbance (O.D.) at 645 nm of 0.004
